FYI, the data here is from ChEMBL document CHEMBL4689842.

Readings of Population Membrane Permeable-Phenotype (%) for the listed compounds
Test system: U2OS
experimental.protocol: Multiplex assay against U2OS
Format: toxicity, cell-based
experimental.conditions: human, 48 h, 10 µM, compound concentration 10 uM, replicate 2
Please reply with the bare figure in % and do not write the unit itself.

Look over these answered cases.
compound	result.number
Cc1c[nH]c2nccc(Oc3c(F)cc(Nc4cc(Cl)nc(N)n4)cc3F)c12	25
COc1ccc(-c2ccc3ncc4c(c3c2)n(-c2ccc(N3CCNCC3)c(C(F)(F)F)c2)c(=O)n4C)cn1.O=C(O)/C=C\C(=O)O	81
COc1cc(Nc2nccc(-c3cnn4nc(OC)ccc34)n2)cc(C(F)(F)F)c1	8
CNC(=O)Nc1ccc(-c2nc(N3CC4CCC(C3)O4)c3cnn(C4CCC5(CC4)OCCO5)c3n2)cc1	40
Cc1ccc2c(c1)c1c(n2CCc2ccc(C)nc2)CCN(C)C1 [LATREPIRDINE]	52

Q: If you can, please state the reported Population Membrane Permeable-Phenotype (%) value of O=C(c1cc2c(cc1F)OC(c1ccc(F)cc1)(c1ccc(Cl)cc1Cl)O2)N1CCOCC1 (stereo not drawn) .
Ans: 76

Q: Okay, and Cl.O=C(O)c1cc(-c2ccc(C3CCNCC3)cc2)c2ccc(-c3ccc(C(F)(F)F)cc3)cc2c1 ?
Ans: 13

Q: What would you report for CCCSc1nc(N[C@@H]2C[C@H]2c2ccc(F)c(F)c2)c2nnn([C@@H]3C[C@H](OCCO)[C@@H](O)[C@H]3O)c2n1 ?
Ans: 74

---

Test system: HEK-293T
experimental.protocol: Multiplex assay against HEK293T
Format: toxicity, cell-based
experimental.conditions: human, 48 h, 1 µM, compound concentration 1 uM, replicate 1
measurement.kind: Population Hoechst High Intensity Objects (%)
Reply numerically in %, unit not repeated.

Here are 2 compounds together with their reported answers.
compound	result.number
Cc1cccc(CN2CCN(C(c3ccccc3)c3ccc(Cl)cc3)CC2)c1.Cl.Cl (centres undefined)	17
O=c1cc(N2CCOCC2)oc2c(-c3cccc4c3sc3ccccc34)cccc12	9

Q: What Population Hoechst High Intensity Objects (%) value was documented for this compound, CCc1ccc(OCc2ccccc2C(=O)Nc2ccc3nc(C)cc(N)c3c2)cc1.Cl ?
Ans: 22

---

Listed here are compounds together with their documented Population Mitochondria Different-Phenotype (%).
Tested on: Fibroblast
experimental.protocol: Multiplex assay against human fibroblast
Type: toxicity, cell-based
experimental.conditions: 12 h, 1 µM, compound concentration 1 uM, replicate 1
Please reply with the bare figure in % and do not write the unit itself.

Study these solved cases before continuing.
compound	readout.units	result.number
COc1cc2ncn(-c3cc(OCc4ccccc4C(F)(F)F)c(C(N)=O)s3)c2cc1OC [GW843682X]	%	2
Cc1c[nH]c2nccc(Oc3c(F)cc(Nc4cc(Cl)nc(N)n4)cc3F)c12	%	3
CCc1ccc(OCc2ccccc2C(=O)Nc2ccc3nc(C)cc(N)c3c2)cc1.Cl	%	44

Q: For the compound C[C@]12CC[C@@H]3c4ccc(O)cc4CC[C@H]3[C@@H]1CC[C@@H]2O , what Population Mitochondria Different-Phenotype (%) is on record?
Ans: 9

Q: Same thing, different compound: CCOC(=O)Nc1cc(-c2ccc(C)c(NS(C)(=O)=O)c2)nn2c(C)nnc12
Ans: 9

Q: Cc1ccc2c(c1)c1c(n2CCc2ccc(C)nc2)CCN(C)C1 [LATREPIRDINE] ?
Ans: 18

Q: Check COC(=O)C1=C(C)NC(C)=C(C(=O)OCCCN2CCC(c3ccccc3)(c3ccccc3)CC2)[C@H]1c1cccc([N+](=O)[O-])c1 too.
Ans: 85

Q: Record: CC(C)c1noc(N2CCC(COc3ccc(-c4ccc(S(C)(=O)=O)cc4)nc3)CC2)n1
Ans: 15

Q: Lookup CC1=C(C(=O)Nc2cc3cn[nH]c3cc2F)C(c2ccc(C(F)(F)F)cc2)CC(=O)N1 (stereo unspecified)
Ans: 6

Q: Entry to check: C=CC(=O)Nc1cccc(Sc2nc(Nc3ccc(N4CCN(C)CC4)cc3)ncc2Cl)c1
Ans: 50

Q: Request: C=CC(=O)Nc1ccc2[nH]c(=O)n(C3CCN(Cc4ccc(-c5nc6cc[nH]c(=O)c6cc5-c5ccccc5)cc4)CC3)c2c1
Ans: 5

Q: Please give the result for CC(C)NC(=O)N1CC[C@H](NC2=Nc3cc(F)ccc3N(CC(F)F)c3ccc(Cl)cc32)C1 too.
Ans: 4
